TEST: pH of the salt solutions
Type: physicochemical
MEASUREMENT_CONDITIONS: aqueous solution of the salt, Table 5
Give pH for every item shown.
Answer with a number only.

Lab note: measured pH of CCCN(CCC)CC(=O)O[C@H]1C[C@]2(C)[C@@H](C(C)=O)CC[C@H]2[C@@H]2CC[C@H]3C[C@H](O)CC[C@]3(C)[C@H]21 [Example 213] was 3.8

Lab note: measured pH of CC(=O)[C@H]1CC[C@H]2[C@@H]3CC[C@H]4C[C@H](O)CC[C@]4(C)[C@H]3[C@@H](OC(=O)CNC3CC3)C[C@]12C was 2.93

Lab note: measured pH of CC(=O)[C@H]1CC[C@H]2[C@@H]3CC[C@H]4C[C@H](O)CC[C@]4(C)[C@H]3[C@@H](OC(=O)CN(C)C(C)C)C[C@]12C was 2.69

Lab note: measured pH of CCN(CC(=O)O[C@H]1C[C@]2(C)[C@@H](C(C)=O)CC[C@H]2[C@@H]2CC[C@H]3C[C@H](O)CC[C@]3(C)[C@H]21)CC(C)C was 2.98

Lab note: measured pH of CCCN(CCC)CC(=O)O[C@H]1C[C@]2(C)[C@@H](C(C)=O)CC[C@H]2[C@@H]2CC[C@H]3C[C@H](O)CC[C@]3(C)[C@H]21 [Example 154] was 3.5

Lab note: measured pH of CC(=O)[C@H]1CC[C@H]2[C@@H]3CC[C@H]4C[C@H](O)CC[C@]4(C)[C@H]3[C@@H](OC(=O)CN(C)Cc3ccccc3)C[C@]12C was 2.7

Lab note: measured pH of CCCN(CCC)CC(=O)O[C@H]1C[C@]2(C)[C@@H](C(C)=O)CC[C@H]2[C@@H]2CC[C@H]3C[C@H](O)[C@@H](OCC)C[C@]3(C)[C@H]21 was 3.5

Lab note: measured pH of CCCCN(C)C(C)C(=O)O[C@H]1C[C@]2(C)[C@@H](C(C)=O)CC[C@H]2[C@@H]2CC[C@H]3C[C@H](O)CC[C@]3(C)[C@H]21 (stereo partly drawn) was 3.43

Lab note: measured pH of CCN(C)CC(=O)O[C@H]1C[C@]2(C)[C@@H](C(C)=O)CC[C@H]2[C@@H]2CC[C@H]3C[C@H](O)CC[C@]3(C)[C@H]21 was 3.63

Lab note: measured pH of CCCN(CCC)CC(=O)O[C@H]1C[C@]2(C)[C@@H](C(C)=O)CC[C@H]2[C@@H]2CC[C@H]3C[C@](C)(O)CC[C@]3(C)[C@H]21 was 3.4

Lab note: measured pH of CCCCCCN(C)CC(=O)O[C@H]1C[C@]2(C)[C@@H](C(C)=O)CC[C@H]2[C@@H]2CC[C@H]3C[C@H](O)CC[C@]3(C)[C@H]21 was 2.98

Lab note: measured pH of CC(=O)[C@H]1CC[C@H]2[C@@H]3CC[C@H]4C[C@H](O)CC[C@]4(C)[C@H]3[C@@H](OC(=O)CNC34CC5CC(CC(C5)C3)C4)C[C@]12C was 2.92

---

TEST: pH of the salt solutions
Type: physicochemical
MEASUREMENT_CONDITIONS: aqueous solution of the salt, Table 5
Give pH for every item shown.
Answer with a number only.

Lab note: measured pH of CCCCN(CC)CC(=O)O[C@H]1C[C@]2(C)[C@@H](C(C)=O)CC[C@H]2[C@@H]2CC[C@H]3C[C@H](O)[C@@H](OCC)C[C@]3(C)[C@H]21 was 3.35

Lab note: measured pH of CC(=O)[C@H]1CC[C@H]2[C@@H]3CC[C@H]4C[C@H](O)CC[C@]4(C)[C@H]3[C@@H](OC(=O)CN(C)C3CC3)C[C@]12C was 2.46

Lab note: measured pH of CCN(CC)CC(=O)O[C@H]1C[C@]2(C)[C@@H](C(C)=O)CC[C@H]2[C@@H]2CC[C@H]3C[C@H](O)[C@@H](OC)C[C@]3(C)[C@H]21 was 3.65

Lab note: measured pH of CCCN(CCC)CC(=O)O[C@H]1C[C@]2(C)[C@@H](C(C)=O)CC[C@H]2[C@@H]2CC[C@H]3C[C@H](O)CC[C@]3(C)[C@H]21 [Example 219] was 3.77

Lab note: measured pH of CCCCNCC(=O)O[C@H]1C[C@]2(C)[C@@H](C(C)=O)CC[C@H]2[C@@H]2CC[C@H]3C[C@H](O)CC[C@]3(C)[C@H]21 was 3.60

Lab note: measured pH of CCN(CC(=O)O[C@H]1C[C@]2(C)[C@@H](C(C)=O)CC[C@H]2[C@@H]2CC[C@H]3C[C@H](O)CC[C@]3(C)[C@H]21)C(C)C was 3.56

Lab note: measured pH of CCN(CC)CC(=O)O[C@H]1C[C@]2(C)[C@@H](C(C)=O)CC[C@H]2[C@@H]2CC[C@H]3C[C@H](O)C=C[C@]3(C)[C@H]21 was 3.2

Lab note: measured pH of CCC(C)N(C)CC(=O)O[C@H]1C[C@]2(C)[C@@H](C(C)=O)CC[C@H]2[C@@H]2CC[C@H]3C[C@H](O)CC[C@]3(C)[C@H]21 (stereo partly drawn) was 3.0

Lab note: measured pH of CCCN(C)CC(=O)O[C@H]1C[C@]2(C)[C@@H](C(C)=O)CC[C@H]2[C@@H]2CC[C@H]3C[C@H](O)CC[C@]3(C)[C@H]21 was 3.4

Lab note: measured pH of CCCN(CCC)CC(=O)O[C@H]1C[C@]2(C)[C@@H](C(C)=O)CC[C@H]2[C@@H]2CC[C@H]3C[C@H](O)CC[C@]3(C)[C@H]21 [Example 215] was 3.63

Lab note: measured pH of CCCC(C)NCC(=O)O[C@H]1C[C@]2(C)[C@@H](C(C)=O)CC[C@H]2[C@@H]2CC[C@H]3C[C@H](O)CC[C@]3(C)[C@H]21 (stereo partly drawn) was 2.89

Lab note: measured pH of CC(=O)C1CCC2C3CCC4CC(O)C(C)CC4(C)C3C(OC(=O)CN3CCC(C)CC3)CC12C (stereo not drawn) was 2.96

Lab note: measured pH of CCC(C)CNCC(=O)O[C@H]1C[C@]2(C)[C@@H](C(C)=O)CC[C@H]2[C@@H]2CC[C@H]3C[C@H](O)CC[C@]3(C)[C@H]21 (stereo partly drawn) was 3.64

Lab note: measured pH of CC(=O)[C@H]1CC[C@H]2[C@@H]3CC[C@H]4C[C@H](O)CC[C@]4(C)[C@H]3[C@@H](OC(=O)CCN(C)C(C)CC(C)C)C[C@]12C (stereo partly drawn) was 3.2

Lab note: measured pH of CC(=O)[C@H]1CC[C@H]2[C@@H]3CC[C@H]4C[C@H](O)CC[C@]4(C)[C@H]3[C@@H](OC(=O)CNCC(C)C)C[C@]12C was 3.27

Lab note: measured pH of CCCCCN(C)CC(=O)O[C@H]1C[C@]2(C)[C@@H](C(C)=O)CC[C@H]2[C@@H]2CC[C@H]3C[C@H](O)CC[C@]3(C)[C@H]21 was 2.86

Lab note: measured pH of CC(=O)[C@H]1CC[C@H]2[C@@H]3CC[C@H]4C[C@](C)(O)CC[C@]4(C)[C@H]3[C@@H](OC(=O)CN3CCC(C)CC3)C[C@]12C was 3.2

Lab note: measured pH of CC(=O)[C@H]1CC[C@H]2[C@@H]3CC[C@H]4C[C@H](O)CC[C@]4(C)[C@H]3[C@@H](OC(=O)CN(C(C)C)C(C)C)C[C@]12C was 3.02

Lab note: measured pH of CO[C@H]1C[C@@]2(C)[C@@H](CC[C@@H]3[C@@H]2[C@@H](OC(=O)CN2CCCCC2)C[C@]2(C)[C@@H](C(C)=O)CC[C@@H]32)C[C@@H]1O was 3.6

Lab note: measured pH of CCOC1CC2(C)C(CCC3C4CCC(C(C)=O)C4(C)CC(OC(=O)CN4CCC(C)CC4)C32)CC1O (stereo not drawn) was 3.72

Lab note: measured pH of CCC(C)NCC(=O)O[C@H]1C[C@]2(C)[C@@H](C(C)=O)CC[C@H]2[C@@H]2CC[C@H]3C[C@H](O)CC[C@]3(C)[C@H]21 (stereo partly drawn) was 3.76

Lab note: measured pH of CCCN(CCC)CC(=O)O[C@H]1C[C@]2(C)[C@@H](C(C)=O)CC[C@H]2[C@@H]2CC[C@H]3C[C@H](O)CC[C@]3(C)[C@H]21 [Example 212] was 3.6

Lab note: measured pH of CCCC(C)N(C)CC(=O)O[C@H]1C[C@]2(C)[C@@H](C(C)=O)CC[C@H]2[C@@H]2CC[C@H]3C[C@H](O)CC[C@]3(C)[C@H]21 (stereo partly drawn) was 3.63

Lab note: measured pH of CCCCOC1CC2(C)C(CCC3C4CCC(C(C)=O)C4(C)CC(OC(=O)CN4CCC(C)CC4)C32)CC1O (stereo not drawn) was 2.8
